# TESTED ON: HLA-DRB1*0401 (Homo sapiens (Human), UniProt P01903+P01911, A100K/A169T/DEL228-266/F76Y/I96L/K127E/L162R/M171V/N62H/P40V/Q125Y/R42H/S133A/S149N/S66Y/V115G/V209L/W38E)
# MEASUREMENT NOTES: HLA-DR4 HTRF assay
# CONDITION SUMMARY: inhibition of loading of Alexa Fluor 647-labeled Cit-CII peptide onto HLA-DR4 (CLIP cleaved)
# From the text: The screening was made through two sets of HLA-DR/peptide-dependent assays: a peptide-dependent Homogeneous Time Resolved Fluorescence (HTRF) binding assay followed by an HLA-DR dependent, peptide-specific T cell functional assay (HLA-DR4-restricted peptide-specific T cell-based assay hybridoma assay). The HTRF binding assay was designed to measure the ability of the small molecule to inhibit the loading of a fluorescently labeled high-affinity peptide onto HLA-DR peptide binding groove. […]
// classify: if (IC50 < 900 nM) fulfilled else not fulfilled

## Task Dear reviewer, please state whether NC(=O)c1ccc([C@@H](Oc2ccc3c(c2)OCCC3=O)c2ccncc2F)cc1 (single isomer, unassigned) [Example 20a] has IC50 strictly beneath 900 nM.
## Result not fulfilled

## Task Dear reviewer, please state whether C[C@@H]1CC(=O)c2ccc(O[C@H](c3ccncc3)c3ccc(C(N)=O)cc3)cc2O1 (single isomer, unassigned) [Example 39a] has IC50 strictly beneath 900 nM.
## Result not fulfilled

## Task Dear reviewer, please state whether NC(=O)c1ccc([C@H](Oc2ccc3c(c2)OCCC3=O)c2ccnc(C(F)(F)F)c2)cc1 (single isomer, unassigned) [Example 18b] has IC50 strictly beneath 900 nM.
## Result not fulfilled

## Task Dear reviewer, please state whether CCCc1c(O[C@@H](c2ccncc2)c2ccc(C(N)=O)cc2)ccc2c1OCCC2=O (single isomer, unassigned) [Example 80a] has IC50 strictly beneath 900 nM.
## Result fulfilled

## Task Dear reviewer, please state whether NC(=O)c1ccc(C(Oc2ccc3c(c2)OCCC3=O)c2ccnc(C(F)(F)F)c2)cc1 (single isomer, unassigned) [Example 18a] has IC50 strictly beneath 900 nM.
## Result not fulfilled

## Task Dear reviewer, please state whether NC(=O)c1ccc([C@@H](Oc2ccc3c(c2-c2ccccc2)OCCC3=O)c2ccncc2)cc1 (single isomer, unassigned) [Example 53a] has IC50 strictly beneath 900 nM.
## Result fulfilled

----------
# TESTED ON: HLA-DRB1*0401 (Homo sapiens (Human), UniProt P01903+P01911, A100K/A169T/DEL228-266/F76Y/I96L/K127E/L162R/M171V/N62H/P40V/Q125Y/R42H/S133A/S149N/S66Y/V115G/V209L/W38E)
# MEASUREMENT NOTES: HLA-DR4 HTRF assay
# Assay type: binding
# CONDITION SUMMARY: inhibition of loading of Alexa Fluor 647-labeled Cit-CII peptide onto HLA-DR4 (CLIP cleaved)
PROPERTY LABEL: IC50 (µM)
Your answer should be a plain number; it is taken to be in µM.

The reported IC50 of the molecule CCCc1c(O[C@H](c2ccncc2)c2ccc(C(N)=O)cc2)ccc2c1OCCC2=O (single isomer, unassigned) [Example 80b] was 0.96

The reported IC50 of the molecule Cc1c(O[C@H](c2ccc(C(N)=O)cc2)c2ccccc2C#N)ccc2c1OCCC2=O (single isomer, unassigned) [Example 61a] was 0.99

The reported IC50 of the molecule N#Cc1cc(O[C@H](c2ccncc2)c2ccc(C(N)=O)cc2)cc2c1C(=O)CCO2 (single isomer, unassigned) [Example 101b] was 1.3

The reported IC50 of the molecule CC(C)c1c(O[C@@H](c2ccncc2)c2ccc(C(N)=O)cc2)ccc2c1OCCC2=O (single isomer, unassigned) [Example 75a] was 0.6

The reported IC50 of the molecule NC(=O)c1ccc([C@@H](Oc2ccc3c(c2)OCCC3=O)c2cccnc2)cc1 (single isomer, unassigned) [Example 31b] was 0.64

The reported IC50 of the molecule CCOc1cc(C(N)=O)ccc1[C@@H](Oc1ccc2c(c1C)OCCC2=O)c1ccncc1 (single isomer, unassigned) [Example 83b] was 0.69

The reported IC50 of the molecule Cc1c(O[C@H]2CCc3cc(C(N)=O)ccc32)ccc2c1OCCC2=O (single isomer, unassigned) [Example 121b] was 0.83

The reported IC50 of the molecule NC(=O)c1ccc([C@H](Oc2ccc3c(c2)OCCC3=O)c2ccnc3ccccc23)cc1 (single isomer, unassigned) [Example 22b] was 1.2

The reported IC50 of the molecule COc1ccc(COc2cccc([C@@H](Oc3ccc4c(c3)OCCC4=O)c3ccncc3)c2)cc1 (single isomer, unassigned) [Example 4b] was 7.9

The reported IC50 of the molecule NC(=O)c1ccccc1[C@@H](Oc1ccc2c(c1)OCCC2=O)c1ccncc1 (single isomer, unassigned) [Example 8b] was 0.82

The reported IC50 of the molecule NC(=O)c1ccc([C@@H](Oc2ccc3c(c2)OCCC3=O)c2ccncn2)cc1 (single isomer, unassigned) [Example 33a] was 0.58

The reported IC50 of the molecule CCc1cc(O[C@@H](c2ccncc2)c2ccc(C(N)=O)cc2)cc2c1C(=O)CCO2 (single isomer, unassigned) [Example 99a] was 42

The reported IC50 of the molecule NC(=O)c1ccc([C@@H](Oc2ccc3c(c2)OCC(c2ccccc2)C3=O)c2ccncc2)cc1 (stereo in doubt) [Example 47] was 6.5

----------
# TESTED ON: HLA-DRB1*0401 (Homo sapiens (Human), UniProt P01903+P01911, A100K/A169T/DEL228-266/F76Y/I96L/K127E/L162R/M171V/N62H/P40V/Q125Y/R42H/S133A/S149N/S66Y/V115G/V209L/W38E)
# MEASUREMENT NOTES: HLA-DR4 HTRF assay
# CONDITION SUMMARY: inhibition of loading of Alexa Fluor 647-labeled Cit-CII peptide onto HLA-DR4 (CLIP cleaved)
pIC50: −log10 of the molar value.
Tick Criterion met if pIC50 is 6 or greater. Tick Criterion not met if pIC50 is less than 6.

## Task Assess whether reported pIC50 for Cc1c(O[C@H](c2ccc(C(N)=O)cc2)c2ccc(S(C)(=O)=O)cc2)c(F)cc2c1OCCC2=O (single isomer, unassigned) [Example 93a] sits at 6 or higher.
## Result Criterion met

## Task Assess whether reported pIC50 for Cc1c(O[C@@H](c2ccc(C(N)=O)cc2)c2cccc(C#N)c2)ccc2c1OCCC2=O (single isomer, unassigned) [Example 60b] sits at 6 or higher.
## Result Criterion not met

## Task Assess whether reported pIC50 for NC(=O)c1ccc([C@H](Oc2ccc3c(c2)O[C@@H](c2ccccc2)CC3=O)c2ccncc2)cc1 (single isomer, unassigned) [Example 42a] sits at 6 or higher.
## Result Criterion not met

## Task Assess whether reported pIC50 for C[C@@H]1COc2cc(O[C@H](c3ccncc3)c3ccc(C(N)=O)cc3)ccc2C1=O (single isomer, unassigned) [Example 44a] sits at 6 or higher.
## Result Criterion not met

## Task Assess whether reported pIC50 for Cc1c(OC2CCc3cc(C(N)=O)ccc32)ccc2c1OCCC2=O (racemic) sits at 6 or higher.
## Result Criterion met

----------
# TESTED ON: HLA-DRB1*0401 (Homo sapiens (Human), UniProt P01903+P01911, A100K/A169T/DEL228-266/F76Y/I96L/K127E/L162R/M171V/N62H/P40V/Q125Y/R42H/S133A/S149N/S66Y/V115G/V209L/W38E)
# MEASUREMENT NOTES: HLA-DR4 HTRF assay
# CONDITION SUMMARY: inhibition of loading of Alexa Fluor 647-labeled Cit-CII peptide onto HLA-DR4 (CLIP cleaved)
PROPERTY LABEL: pIC50
// scale note: pIC50 = -log10(conc_M); give the bare number

The reported pIC50 of the molecule Cc1c(O[C@H](c2ccc(C(N)=O)cc2)c2cccc[n+]2[O-])ccc2c1OCCC2=O (single isomer, unassigned) [Example 65a] was 4.52

The reported pIC50 of the molecule Cc1cc2c(cc1O[C@H](c1ccncc1)c1ccc(C(N)=O)cc1)OCCC2=O (single isomer, unassigned) [Example 49b] was 6.00

The reported pIC50 of the molecule O=C1CCOc2cc(O[C@@H](c3ccncc3)c3ccc(OCc4ccccc4)cc3)ccc21 (single isomer, unassigned) [Example 16a] was 5.09

----------
# TESTED ON: HLA-DRB1*0401 (Homo sapiens (Human), UniProt P01903+P01911, A100K/A169T/DEL228-266/F76Y/I96L/K127E/L162R/M171V/N62H/P40V/Q125Y/R42H/S133A/S149N/S66Y/V115G/V209L/W38E)
# MEASUREMENT NOTES: HLA-DR4 HTRF assay
# CONDITION SUMMARY: inhibition of loading of Alexa Fluor 647-labeled Cit-CII peptide onto HLA-DR4 (CLIP cleaved)
PROPERTY LABEL: pIC50
// scale note: pIC50 = -log10(conc_M); give the bare number

The reported pIC50 of the compound CC(C)c1cc2c(cc1O[C@H](c1ccncc1)c1ccc(C(N)=O)cc1)OCCC2=O (single isomer, unassigned) [Example 76b] was 6.00

The reported pIC50 of the compound CN(C)C(=O)c1ccc([C@@H](Oc2ccc3c(c2)OCCC3=O)c2ccncc2)cc1 (single isomer, unassigned) [Example 72a] was 6.08

The reported pIC50 of the compound COc1c(O[C@H](c2ccncc2)c2ccc(C(N)=O)cc2)ccc2c1OCCC2=O (single isomer, unassigned) [Example 100b] was 5.05

The reported pIC50 of the compound COc1ccccc1[C@H](Oc1ccc2c(c1)OCCC2=O)c1ccncc1 (single isomer, unassigned) [Example 14a] was 5.72

The reported pIC50 of the compound CC[C@@H]1CC(=O)c2ccc(OCc3ccnc(C)c3)cc2O1 (single isomer, unassigned) [Example 118a] was 6.02

The reported pIC50 of the compound Cc1cc([C@@H](Oc2ccc3c(c2C)OCCC3=O)c2ccc(C(N)=O)cc2)cc(C)n1 (single isomer, unassigned) [Example 111b] was 6.25

The reported pIC50 of the compound NC(=O)c1ccc([C@H](Oc2ccc3c(c2F)OCCC3=O)c2ccncc2)cc1 (single isomer, unassigned) [Example 50b] was 5.72

The reported pIC50 of the compound Cc1cnccc1[C@@H](Oc1ccc2c(c1)OCCC2=O)c1ccc(C(N)=O)cc1 (single isomer, unassigned) [Example 21b] was 6.19

The reported pIC50 of the compound N#Cc1c(O[C@H](c2ccncc2)c2ccc(C(N)=O)cc2)ccc2c1OCCC2=O (single isomer, unassigned) [Example 78b] was 6.35

The reported pIC50 of the compound Cc1c(O[C@@H](c2ccc(C(N)=O)cc2)c2ccccc2C#N)ccc2c1OCCC2=O (single isomer, unassigned) [Example 61b] was 6.02

The reported pIC50 of the compound NC(=O)c1ccc([C@H](Oc2ccc3c(c2)OCCC3=O)c2ccncc2N)cc1 (single isomer, unassigned) [Example 27b] was 5.19

The reported pIC50 of the compound O=C1CCOc2cc(O[C@H](c3ccncc3)c3ccc(F)cc3)ccc21 (single isomer, unassigned) was 5.89

The reported pIC50 of the compound Cc1c(O[C@H](c2ccc(C(N)=O)cc2)c2ccnc(CCC(=O)O)c2)ccc2c1OCCC2=O (single isomer, unassigned) [Example 87a] was 6.24

The reported pIC50 of the compound CC[C@@H]1COc2cc(O[C@H](c3ccncc3)c3ccc(C(N)=O)cc3)ccc2C1=O (single isomer, unassigned) [Example 45a] was 5.96

The reported pIC50 of the compound O=C1CCOc2cc(O[C@@H](c3ccncc3)c3ccccc3F)ccc21 (single isomer, unassigned) was 5.92

The reported pIC50 of the compound Cc1c(O[C@@H](c2ccncc2)c2ccc(C(N)=O)cc2)c(F)cc2c1OCCC2=O (single isomer, unassigned) [Example 58a] was 6.48

The reported pIC50 of the compound CC(C)c1c(O[C@H](c2ccncc2)c2ccc(C(N)=O)cc2)ccc2c1OCCC2=O (single isomer, unassigned) [Example 75b] was 6.20
